Would you mind telling me the reported EC50 of each entry?
Study System: rat GPR40 (Rattus norvegicus, UniProt Q8K3T4)
Sequence (Q8K3T4 whole entry): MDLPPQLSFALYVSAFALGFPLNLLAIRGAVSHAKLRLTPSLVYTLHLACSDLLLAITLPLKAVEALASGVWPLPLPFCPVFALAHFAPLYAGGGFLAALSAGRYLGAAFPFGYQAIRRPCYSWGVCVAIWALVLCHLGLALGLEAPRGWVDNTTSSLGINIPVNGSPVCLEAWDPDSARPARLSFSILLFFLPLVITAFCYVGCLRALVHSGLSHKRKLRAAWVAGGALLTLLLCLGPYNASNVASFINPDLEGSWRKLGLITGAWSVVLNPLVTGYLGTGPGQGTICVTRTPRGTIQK
Test Name: GPR40 calcium flux assay, HEK293 cells stably expressing rat GPR40
Condition Context: transfected HEK293 cells stably expressing rat GPR40, Fluo 8 dye, read-out: rGPR40 Ca2+ Assay EC50
Give bare numbers, in µM.

COc1ccc(F)c([C@H]2CC[C@H](COc3cccc([C@H](C4CC4)C(C)(F)C(=O)O)c3)CC2)c1 (stereo partly shown) [Cpd 58]
0.00023
COc1ccc(F)c([C@H]2CC[C@H](COc3cccc(C(CC(=O)O)C4CC4)c3)CC2)c1 (mixture of isomers) [Cpd 56]
0.0144
COc1cc([C@H]2CC[C@H](COc3cncc(C(CC(=O)O)C4CC4)c3)CC2)c(F)cn1 (stereo partly shown) [Cpd 22]
0.0519
COc1ccc(F)c([C@H]2CC[C@H](CCc3cccc([C@H](C4CC4)C(C)(F)C(=O)O)c3)CC2)c1 (stereo partly shown) [Cpd 73]
0.00046
COc1cc(C2CCC(COc3cccc([C@H](C4CC4)C(C)(F)C(=O)O)c3)CC2)ccn1 (mixture of isomers) [Cpd 69]
0.0015

Quick one: give me EC50 for each item below, same order please.
1. COc1cc(C2CCC(COc3cccc([C@@H](CC(=O)O)C4CC4)c3)C(C)C2)c(F)cn1 (stereo partly shown) [Cpd 33]
2. COc1ccc(F)c([C@H]2CC[C@H](CNc3cccc([C@@H](CC(=O)O)C4CC4)c3)CC2)c1 [Cpd 40]

1: 0.0173; 2: 0.021

----------
Study System: human GPR40 (Homo sapiens, UniProt O14842)
Sequence (O14842 whole entry): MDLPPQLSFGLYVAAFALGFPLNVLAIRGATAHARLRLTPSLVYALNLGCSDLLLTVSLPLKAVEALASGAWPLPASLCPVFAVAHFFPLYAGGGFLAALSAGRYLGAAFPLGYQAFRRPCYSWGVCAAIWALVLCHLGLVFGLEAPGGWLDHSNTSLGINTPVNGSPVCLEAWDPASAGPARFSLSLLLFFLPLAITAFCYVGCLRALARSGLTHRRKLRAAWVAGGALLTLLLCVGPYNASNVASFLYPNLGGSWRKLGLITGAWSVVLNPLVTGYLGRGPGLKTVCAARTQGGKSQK
Test Name: GPR40 calcium flux assay, HEK293 cells stably expressing human GPR40
Condition Context: transfected HEK293 cells stably expressing human GPR40, Fluo 8 dye, read-out: hGPR40 Ca2+ Assay EC50
Measurement Label: EC50 (nM)
Answers are plain numbers, in nM.

COc1ccc(F)c([C@]2(OC)CC[C@H](COc3cccc([C@@H](CC(=O)O)C4CC4)c3)CC2)c1
13.8

Quick one: give me EC50 for each item below, same order please.
1. COc1ccc(F)c([C@H]2CC[C@H](COc3cccc([C@H](C4CC4)C(C)C(=O)O)c3)CC2)c1 (single isomer, unassigned)
2. COc1ccnc(C2CCC(COc3cc([C@@H](CC(=O)O)C4CC4)ccn3)CC2)n1 (stereo partly drawn)

1: 2.2; 2: 244

Quick one: give me EC50 for each item below, same order please.
1. COc1cc([C@H]2CC[C@@H](COc3cccc(C(CC(=O)O)C4CC4)n3)CC2)c(F)cn1 (stereo partly drawn)
2. COc1ccc(F)c([C@H]2CC[C@H](COc3cncc(C(CC(=O)O)C4CC4)c3)CC2)c1 (stereo partly drawn)
3. CCc1ccc(F)c([C@H]2CC[C@H](COc3cccc([C@H](C4CC4)[C@H](C)C(=O)O)c3)CC2)c1

3080
12
0.5

Quick one: give me EC50 for each item below, same order please.
1. COc1ccc(F)c([C@H]2CC[C@H](COc3ccnc(C(CC(=O)O)C4CC4)c3)CC2)c1 (stereo partly drawn)
2. COc1ccc(C)c(C2CCC(COc3cccc([C@H](C4CC4)C(C)(F)C(=O)O)c3)CC2)c1 (stereo partly drawn)

[62.4, 0.16]

Quick one: give me EC50 for each item below, same order please.
1. COc1cc([C@]2(OC)CC[C@@H](COc3cc([C@@H](CC(=O)O)C4CC4)ccn3)CC2)c(F)cn1
2. COc1ccc(F)c([C@H]2CC[C@H](COc3cccc([C@H](C4CC4)[C@H](C)C(=O)O)c3)CC2)c1
3. COc1ccc(F)c([C@H]2CC[C@@H](COc3cccc([C@@H](Cc4nnn[nH]4)C4CC4)c3)CC2)c1
4. COc1ccc(F)c([C@H]2CC[C@@H](COc3cccc(C(CC(=O)O)C4CC4)n3)CC2)c1 (stereo partly drawn)

1. 9.9
2. 0.2
3. 600
4. 1500

Quick one: give me EC50 for each item below, same order please.
1. CC#CC(CC(=O)O)c1cccc(OC[C@H]2CC[C@@H](c3cc(OC)ccc3F)CC2)c1 (stereo partly drawn)
2. COc1ccc(F)c([C@H]2CC[C@H](CNc3cccc([C@H](C4CC4)C(C)(F)C(=O)O)c3)CC2)c1 (stereo partly drawn)
3. COc1ccc(F)c([C@H]2CC[C@@H](COc3cccc([C@@H](CC(=O)O)C4CC4)c3)CC2)c1

3100
1.72
36.2
